target: COVID S1 RBD Fc fusion (Antigen 1) (SARS-CoV-2), P0DTC2; experiment: phage ELISA; details: remark: other sources report otherwise
Measurement kind: specificity ELISA, percent binding relative to Acro S1 (%)
Write it as a number; the unit % goes unstated.

specificity ELISA, percent binding relative to Acro S1 measured on SARS-CoV-2 variant 1-3 (antibody, V domains shown) VH: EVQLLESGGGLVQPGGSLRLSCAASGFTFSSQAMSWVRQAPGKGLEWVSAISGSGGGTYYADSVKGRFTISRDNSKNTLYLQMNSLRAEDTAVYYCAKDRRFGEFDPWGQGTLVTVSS VL: QSALTQPASVSGSPGQSITISCTGISSDVGSYNLVSWYQQHPGKAPKLMIYEGTKRPSGVSNRFSGSKSGNTASLTISGLQAEDEADYYCCSYAGSSSFVVFGGGTKLTVL = 109
